SYSTEM_NAME: T1, fully glycosylated, monobiotinylated extracellular domain of human CD98hc produced in HEK 293E cells (human, UniProt P08195 111-529, N-linked glycosylation at Asn264, 280, 323 and 405 (UniProt P08195-2); single biotin on the N-terminal BAP)
T1 construct: also called hCD98hcEDg; CD98hcEDg; not shown: N-terminal His6 tag and biotin acceptor peptide (BAP) from pDSG-BM-His6-BAP-hCD98hcEDg
T1 sequence: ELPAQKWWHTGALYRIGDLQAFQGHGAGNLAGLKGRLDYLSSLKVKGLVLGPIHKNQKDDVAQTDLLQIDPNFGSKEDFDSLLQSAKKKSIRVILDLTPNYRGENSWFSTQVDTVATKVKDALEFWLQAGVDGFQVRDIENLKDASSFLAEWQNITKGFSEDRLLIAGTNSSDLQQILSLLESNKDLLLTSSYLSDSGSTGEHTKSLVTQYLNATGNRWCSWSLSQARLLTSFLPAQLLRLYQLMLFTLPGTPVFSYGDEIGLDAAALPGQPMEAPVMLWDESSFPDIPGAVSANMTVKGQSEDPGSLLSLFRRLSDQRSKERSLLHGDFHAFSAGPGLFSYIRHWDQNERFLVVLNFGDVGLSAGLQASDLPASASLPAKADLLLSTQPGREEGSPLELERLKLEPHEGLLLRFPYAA
TEST_METHOD_NOTES: SPR, biotinylated hCD98hcEDg captured on CAP chip
Procedure: Real time surface plasmon resonance (SPR) spectroscopy was performed on a BIAcore 2000 system (BIAcore, Uppsala, Sweden) at 25° C. using HBS-T (20 mM Hepes/NaOH pH 7.5, 150 mM NaCl, 0.005% v/v Tween20) as running buffer. […] For multi cycle kinetic experiments, eight samples from a consecutive 1:2 dilution series of the purified lipocalin variant were measured. […] The equilibrium dissociation constants (KD value) were calculated as the quotient koff/kₒₙ. […]
OBSERVATION_TYPE: pKd
Quick note: pKd means taking -log10 of the concentration in moles per liter.

# BINDER, OBSERVATION_TYPE, EXPERIMENTAL_VALUE
records = [
    ("lipocalin variant P1E4 (designed binder, produced soluble in E. coli JM83, monomeric; also called Anticalin P1E4; not shown: C-terminal His6-tag (plasmid pNGAL118)) QDSTSDLIPAPPLSKVPLQQNFQDNQFHGKWYVVGIAGNSMLREDKDPFKMTATIYELKEDKSYNVTRVRFDDKKCLYRILTFVPGSQPGEFTLGNIKSRPGWTSWLVRVVSTNYNQHAMVFFKRVHQNRETFWITLYGRTKELTSELKENFIRFSKSLGLPENHIVFPVPIDQCIDG", "pKd", 6.79),
    ("lipocalin variant P3D11 (designed binder, produced soluble in E. coli JM83, monomeric; also called Anticalin P3D11; not shown: C-terminal His6-tag (plasmid pNGAL118)) QDSTSDLIPAPPLSKVPLQQNFQDNQFHGKWYVVGRAGNTGLREDKDPGKMFATIYELKEDKSYNVTYVWFGQKKCMYSIGTFVPGSQPGEFTLGNIKSAPGRTSWLVRVVSTNYNQHAMVFFKSVTQNREGFAITLYGRTKELTSELKENFIRFSKSLGLPENHIVFPVPIDQCIDG", "pKd", 9.77),
]

query: # input binder: lipocalin variant D11vs (designed binder, P3D11 variant with Phe71Ser and Gly81Val; also called Anticalin D11vs; not shown: C-terminal His6-tag (plasmid pNGAL118) as for the other soluble lipocalin variants) QDSTSDLIPAPPLSKVPLQQNFQDNQFHGKWYVVGRAGNTGLREDKDPGKMFATIYELKEDKSYNVTYVWSGQKKCMYSIVTFVPGSQPGEFTLGNIKSAPGRTSWLVRVVSTNYNQHAMVFFKSVTQNREGFAITLYGRTKELTSELKENFIRFSKSLGLPENHIVFPVPIDQCIDG ; wanted: its pKd
result: 10.30

query: # input binder: lipocalin variant P3A12 (designed binder, produced soluble in E. coli JM83, monomeric; also called Anticalin P3A12; not shown: C-terminal His6-tag (plasmid pNGAL118)) QDSTSDLIPAPPLSKVPLQQNFQDNQFHGKWYVVGRAGNLGLREDKDPAKMFATIYELKEDKSYNVTYVWFDLKKCKYSIHTFVPGSQPGEFTLGKIKSGPGHTSWLVRVVSTNYNQHAMVFFKWVGQNRENFAITLYGRTKELTSELKENFIRFSKSLGLPENHIVFPVPIDQCIDG ; wanted: its pKd
result: 8.72
